All figures here come from patent US8178506B2.

Test system: PPARγ
ASSAY REMARKS: PPARγ mRNA expression in adipocytes (real-time PCR)
Type: cell-based, human
EXPERIMENTAL CONDITIONS: Table 17; differentiating adipocytes; control = treatment with ISIS 342673
In the oligonucleotide strings, read from the 5' end, every base follows the letter of its sugar. An asterisk marks phosphorothioate; unmarked linkages are phosphodiester. Other units and linkages are bracketed, terminal groups are in braces. A string of capitals states the bases alone. e = 2'-O-(2-methoxyethyl) (MOE); [5mC] = 5-methylcytosine; d = 2'-deoxy (DNA)
READOUT KIND: PPAR gamma mRNA

The reported PPARγ PPAR gamma mRNA of 328119 (antisense eA*eA*eT*eA*eA*e[5mC]*eA*e[5mC]*eA*e[5mC]*eA*eT*e[5mC]*e[5mC]*eA*e[5mC]*eT*eT*eT*eA*eA) [compound 328119] is 82.7 percentage of control

The reported PPARγ PPAR gamma mRNA of 328118 (antisense eT*eA*eT*eT*eA*eT*e[5mC]*eA*eG*e[5mC]*eA*eT*e[5mC]*eT*eG*e[5mC]*eT*eT*eG*e[5mC]*eA) [compound 328118] is 80.2 percentage of control

The reported PPARγ PPAR gamma mRNA of 328121 (antisense eA*eT*eG*eA*e[5mC]*eT*eA*e[5mC]*eA*eA*eG*eT*eT*eT*eA*eT*eG*eG*e[5mC]*e[5mC]*eA) [compound 328121] is 103.6 percentage of control

The reported PPARγ PPAR gamma mRNA of 105990 (antisense AGCAAAAGATCAATCCGTTA; sugars from the 5' end e5 d10 e5, backbone and methylation of C not given here) [compound 105990] is 51.8 percentage of control

The reported PPARγ PPAR gamma mRNA of 328129 (antisense eA*eG*e[5mC]*e[5mC]*eT*e[5mC]*e[5mC]*eT*eT*e[5mC]*eT*eT*e[5mC]*eT*e[5mC]*eG*eT*eA*e[5mC]*eT*eA) [compound 328129] is 71.8 percentage of control

The reported PPARγ PPAR gamma mRNA of 328117 (antisense eT*e[5mC]*e[5mC]*eA*e[5mC]*eA*eA*eA*eG*e[5mC]*eT*eG*eA*eA*e[5mC]*eA*eT*eG*eT*e[5mC]*eT) [compound 328117] is 64.1 percentage of control

The reported PPARγ PPAR gamma mRNA of 328125 (antisense eT*eA*eT*eG*eA*eA*eA*eT*eG*e[5mC]*e[5mC]*eA*eG*eA*eG*e[5mC]*eT*eG*e[5mC]*e[5mC]*eA) [compound 328125] is 76.1 percentage of control

The reported PPARγ PPAR gamma mRNA of 328134 (eA*eA*eT*eT*eG*eG*eA*e[5mC]*eA*eA*eA*eG*eT*eG*e[5mC]*e[5mC]*eT*eT*eT*e[5mC]*eA; anti-miR) [compound 328134] is 78.4 percentage of control

The reported PPARγ PPAR gamma mRNA of 328130 (antisense eA*e[5mC]*e[5mC]*eT*e[5mC]*eA*eG*eG*eT*eG*eG*eT*eT*eG*eA*eA*eG*eG*eA*eG*eA) [compound 328130] is 99.4 percentage of control

The reported PPARγ PPAR gamma mRNA of 328139 (eT*eA*e[5mC]*eT*eT*eT*eT*e[5mC]*eA*eT*eT*e[5mC]*e[5mC]*e[5mC]*e[5mC]*eT*e[5mC]*eA*e[5mC]*e[5mC]*eA; anti-miR) [compound 328139] is 115.0 percentage of control

The reported PPARγ PPAR gamma mRNA of 328116 (antisense e[5mC]*eA*eA*eA*eA*eT*eT*eG*e[5mC]*eA*eA*eG*e[5mC]*eA*eA*eA*eT*eT*eG*e[5mC]*eA) [compound 328116] is 78.4 percentage of control

---

Test system: IL-12 mRNA
ASSAY REMARKS: IL-12 mRNA in LPS-activated primary murine macrophages
Format: cell-based, mouse
EXPERIMENTAL CONDITIONS: 300 nM oligomeric compound and LPS, no IFN-gamma pretreatment; single experiment; normalized to LPS-treated cells without oligomeric compound
In the oligonucleotide strings, read from the 5' end, every base follows the letter of its sugar. An asterisk marks phosphorothioate; unmarked linkages are phosphodiester. Other units and linkages are bracketed, terminal groups are in braces. A string of capitals states the bases alone. e = 2'-O-(2-methoxyethyl) (MOE); [5mC] = 5-methylcytosine
READOUT KIND: IL-12 mRNA expression, −IFN % UTC
Answer with the value and then the unit.

The value of IL-12 mRNA expression, −IFN % UTC measured for the substance 327912 (antisense eA*eA*e[5mC]*eT*eA*eT*eA*e[5mC]*eA*eA*eT*e[5mC]*eT*eA*e[5mC]*eT*eA*e[5mC]*e[5mC]*eT*e[5mC]*eA) [compound 327912] turned out to be 206 % UTC

The value of IL-12 mRNA expression, −IFN % UTC measured for the substance 327889 (antisense eG*eT*eG*eG*eT*eA*eA*eT*e[5mC]*e[5mC]*e[5mC]*eT*eG*eG*e[5mC]*eA*eA*eT*eG*eT*eG*eA*eT) [compound 327889] turned out to be 153 % UTC

The value of IL-12 mRNA expression, −IFN % UTC measured for the substance 327890 (antisense eA*eG*e[5mC]*eA*e[5mC]*eA*eA*eA*e[5mC]*eT*eA*e[5mC]*eT*eA*e[5mC]*e[5mC]*eT*e[5mC]*eA) [compound 327890] turned out to be 183 % UTC

The value of IL-12 mRNA expression, −IFN % UTC measured for the substance 327893 (antisense eA*eA*e[5mC]*e[5mC]*eA*e[5mC]*eA*e[5mC]*eA*eA*e[5mC]*e[5mC]*eT*eA*e[5mC]*eT*eA*e[5mC]*e[5mC]*eT*e[5mC]*eA) [compound 327893] turned out to be 117 % UTC

The value of IL-12 mRNA expression, −IFN % UTC measured for the substance 327887 (antisense eG*e[5mC]*eG*eA*e[5mC]*e[5mC]*eA*eT*eG*eG*e[5mC]*eT*eG*eT*eA*eG*eA*e[5mC]*eT*eG*eT*eT*eA) [compound 327887] turned out to be 287 % UTC

The value of IL-12 mRNA expression, −IFN % UTC measured for the substance 327901 (antisense eT*eG*eA*eG*e[5mC]*eT*eA*e[5mC]*eA*eG*eT*eG*e[5mC]*eT*eT*e[5mC]*eA*eT*e[5mC]*eT*e[5mC]*eA) [compound 327901] turned out to be 225 % UTC

The value of IL-12 mRNA expression, −IFN % UTC measured for the substance 327940 (antisense eG*eA*eA*e[5mC]*eA*eG*eG*eT*eA*eG*eT*e[5mC]*eT*eG*eA*eA*e[5mC]*eA*e[5mC]*eT*eG*eG*eG) [compound 327940] turned out to be 228 % UTC

The value of IL-12 mRNA expression, −IFN % UTC measured for the substance 327876 (antisense eA*eA*e[5mC]*eA*e[5mC]*eT*eG*eA*eT*eT*eT*e[5mC]*eA*eA*eA*eT*eG*eG*eT*eG*e[5mC]*eT*eA) [compound 327876] turned out to be 194 % UTC

The value of IL-12 mRNA expression, −IFN % UTC measured for the substance 328133 (eT*eG*eA*eA*eG*eG*eT*eT*e[5mC]*eG*eG*eA*eG*eA*eT*eA*eG*eG*e[5mC]*eT*eA; anti-miR) [compound 328133] turned out to be 165 % UTC

The value of IL-12 mRNA expression, −IFN % UTC measured for the substance 327883 (antisense e[5mC]*eA*eG*eA*eA*e[5mC]*eT*eT*eA*eG*e[5mC]*e[5mC]*eA*e[5mC]*eT*eG*eT*eG*eA*eA) [compound 327883] turned out to be 266 % UTC

The value of IL-12 mRNA expression, −IFN % UTC measured for the substance 327956 (antisense e[5mC]*eA*e[5mC]*eA*eG*eT*eT*eG*e[5mC]*e[5mC]*eA*eG*e[5mC]*eT*eG*eA*eG*eA*eT*eT*eA) [compound 327956] turned out to be 212 % UTC

The value of IL-12 mRNA expression, −IFN % UTC measured for the substance 328110 (antisense eG*eA*eT*eA*eA*eA*eG*e[5mC]*e[5mC]*eA*eA*eT*eA*eA*eA*e[5mC]*eT*eG*eT*e[5mC]*eA) [compound 328110] turned out to be 221 % UTC

The value of IL-12 mRNA expression, −IFN % UTC measured for the substance 328138 (eG*eA*eG*e[5mC]*eT*eG*e[5mC]*eT*e[5mC]*eA*eG*e[5mC]*eT*eG*eG*e[5mC]*e[5mC]*eA*eT*e[5mC]*eA; anti-miR) [compound 328138] turned out to be 277 % UTC

The value of IL-12 mRNA expression, −IFN % UTC measured for the substance 327936 (antisense eA*e[5mC]*eA*eG*e[5mC]*eT*eG*eG*eT*eT*eG*eA*eA*eG*eG*eG*eG*eA*e[5mC]*e[5mC]*eA*eA) [compound 327936] turned out to be 221 % UTC

The value of IL-12 mRNA expression, −IFN % UTC measured for the substance 328117 (antisense eT*e[5mC]*e[5mC]*eA*e[5mC]*eA*eA*eA*eG*e[5mC]*eT*eG*eA*eA*e[5mC]*eA*eT*eG*eT*e[5mC]*eT) [compound 328117] turned out to be 162 % UTC

The value of IL-12 mRNA expression, −IFN % UTC measured for the substance 327941 (antisense eA*eA*e[5mC]*e[5mC]*e[5mC]*eA*e[5mC]*e[5mC]*eG*eA*e[5mC]*eA*eG*e[5mC]*eA*eA*eT*eG*eA*eA*eT*eG*eT*eT) [compound 327941] turned out to be 89 % UTC

The value of IL-12 mRNA expression, −IFN % UTC measured for the substance 327925 (antisense eT*eA*eG*e[5mC]*eT*eG*eG*eT*eT*eG*eA*eA*eG*eG*eG*eG*eA*e[5mC]*e[5mC]*eA*eA) [compound 327925] turned out to be 302 % UTC
